# credit: ChEMBL document CHEMBL1201862

# Tested on: SN12C
# TEST DETAILS: NCI tumour cell line growth inhibition, 48 h
Calls of active or inactive are those of the source. Rule as the data show it: active = GI50 up to about 1.1 µM and inactive = higher.
Labels: 1 for active, 0 for inactive

• N#C/C(=C1\SC(/N=N/c2ccc(Cl)cc2)C(=O)N1c1ccccc1)c1nc2ccccc2[nH]1 (centres undefined) = 0
• c1ccc2[nH]c(CNc3ccc(C4C[Se]N=N4)cc3)nc2c1 (centres undefined) = 0
• Clc1cc2ncn(C3CCCCO3)c2cc1Cl (centres undefined) = 0
• CC#CC1C(OC(=O)c2ccccc2)CCCC1(CI)N=[N+]=[N-] (centres undefined) = 0
• Cn1c(=O)c(C(=O)Nc2nc(C34CC5CC(CC(C5)C3)C4)cs2)c(O)c2ccccc21 = 0
• Cc1cc2c(cc1Cl)Sc1n[nH]c(=O)n1S2(=O)=O = 0
• CC(C)Nc1n[nH]c(=O)n1C(C)C = 0
• COC1(C)OC[C@@]2(C)OC(C)C1(C)C2O[Si](C(C)C)(C(C)C)C(C)C (some centres undefined) = 0
• CCC(C)C(NC(=O)C(CCCC[N+](=N)N)NC(=O)C(CCCC[N+](=N)N)NC(=O)c1ccc(OC)cc1)C(=O)NC(CCCC[N+](=N)N)C(=O)N1CCCC1C(=O)NC(CCCCN)C(=O)NC(CC(C)C)C(N)=O (centres undefined) = 0
• S=C(N/N=C/c1ccccn1)N1CCCCC1 = 1
• C=C1C(=O)O[C@H]2C[C@@H](C)[C@@H]3CC(=O)OC[C@@]3(C)CC12 (some centres undefined) = 0
• COC12C=CC(C=C1C#N)CC2.COC12C=CC(CC1)CC2=O (centres undefined) = 0
• Cc1ccccc1OC(C)C(=O)NN1C(=O)CC(=O)N(c2ccc(Cl)cc2)C1=S (centres undefined) = 0
• CCOC(=O)c1ccc(NC(=O)O/N=C(/Cl)CC)cc1 = 0
• CCOC(=O)C(C(=O)OCC)C(=S)NC1OC(COC(C)=O)C(OC(C)=O)C(OC(C)=O)C1OC(C)=O (centres undefined) = 0
• CCOC(=O)c1cc2ncccc2c2ccccc12 = 0
• O=c1[nH]ccc2c1ccn2C1CC(O)C(CO)O1 (centres undefined) = 0
• CC(=O)O[C@H]1C(=O)[C@@]2(C)[C@H]([C@H](OC(=O)c3ccncc3)[C@]3(O)C[C@H](OC(=O)[C@H](O)[C@@H](NC(=O)c4ccccc4)c4ccccc4)C(C)=C1C3(C)C)[C@]1(OC(C)=O)CO[C@@H]1C[C@@H]2O = 0
• Clc1ccc(OCc2nnc(COc3ccc(OCc4nnc(COc5ccc(Cl)cc5Cl)o4)c(Cl)c3)o2)c(Cl)c1 = 0
• Cc1coc2c1C[C@@]1(C)[C@H](CCC[C@@H]1C)[C@H]2O = 0
• CC1OC(n2cc(F)c(=O)[nH]c2=O)C=CC1=O (centres undefined) = 0
• COc1ccc(-c2nc(N3CCCC3)no2)cc1 = 0
• Cc1ccc(S(=O)(=O)NC(=O)C2S(=O)(=O)OCCOS2(=O)=O)cc1 = 0
• CSc1c(C#N)c(S)n(-c2ccc(Cl)cc2)c(=O)c1C#N = 0

* * *

# System: COLO 205
# TEST DETAILS: NCI tumour cell line growth inhibition, 48 h
Activity calls are given as the source filed them. Rule as the data show it: active = GI50 up to about 1.1 µM and inactive = higher.
Entries and their measured GI50 follow.
ENDPOINT NAME: GI50

• CC1CC2OC(=O)CC2C[C@@H]1O[Si](C)(C)C(C)(C)C (some centres not stated) = 74.6 µM (inactive)
• Nc1cc2c3c(cccc3c1)C(=O)N(c1ccc(OCCN3CCCCC3)cc1)C2=O = 13.4 µM (inactive)
• N#CC(NNC(=O)Cc1ccccc1)c1c(O)ccc2ccccc12 (configuration not stated) = 24.7 µM (inactive)
• Cc1ccc2c(ccc3c[n+]4ccccc4c(C)c32)c1.[O-][Cl+3]([O-])([O-])[O-] = 1.32 µM (inactive)
• NC(=O)COc1ccccc1 = > 100 µM (inactive)
• COc1ccc(/C=C\c2cc(OC)c(OC)c(OC)c2)cc1O = 2.9 µM (inactive)
• O=S(=O)(O)c1ccc(/N=N/c2nc(C(F)(F)F)c(C(F)(F)F)[nH]2)cc1 = 74.8 µM (inactive)
